- System: Saccharomyces cerevisiae
- test.summary: Antifungal activity against Saccharomyces cerevisiae DSY 415 overexpressing Candida albicans MDR1
- Assay type: functional, organism-based
reported.property: IC50 (µM)
Provide the reading as a plain figure in µM.

Recorded IC50 of CC(C)CC(=O)C[C@@H](C)[C@H]1CC[C@@]2(C)[C@@H]3CC[C@H]4[C@](CO)(COS(=O)(=O)O)C(=O)CC[C@@]45C[C@@]35CC[C@]12C , please.
7

Values from ChEMBL document CHEMBL1157306
